Tested system: Carbonic anhydrase 9 (Homo sapiens, UniProt Q16790)
Under this convention, Condition met denotes Ki strictly below 5 µM and Condition not met denotes Ki at or above 5 µM.

Consider `CC(=O)OC[C@H]1O[C@@H](CC(=O)/C=C/c2ccc(O)cc2)[C@H](OC(C)=O)[C@@H](OC(C)=O)[C@@H]1OC(C)=O` . Does its Ki lie strictly below 5 µM?
Condition not met

Consider `CC(=O)OC[C@H]1O[C@@H](CC(=O)/C=C/c2cccc(O)c2)[C@H](OC(C)=O)[C@@H](OC(C)=O)[C@@H]1OC(C)=O` . Does its Ki lie strictly below 5 µM?
Condition not met

Consider `O=C(/C=C/c1cccc(O)c1)C[C@@H]1O[C@H](CO)[C@H](O)[C@H](O)[C@H]1O` . Does its Ki lie strictly below 5 µM?
Condition not met

Consider `CC(=O)OC[C@H]1O[C@@H](CC(=O)/C=C/c2cccc(O)c2)[C@H](OC(C)=O)[C@@H](OC(C)=O)[C@H]1OC(C)=O` . Does its Ki lie strictly below 5 µM?
Condition met

Consider `O=C(/C=C/c1ccc(O)cc1)C[C@@H]1O[C@H](CO)[C@@H](O)[C@H](O)[C@H]1O` . Does its Ki lie strictly below 5 µM?
Condition not met

###

Give Ki for every item shown.

The value of Ki recorded for `O=C(/C=C/c1ccc(O)cc1)C[C@@H]1O[C@H](CO)[C@H](O)[C@H](O)[C@H]1O` when tested on Carbonic anhydrase 5B, mitochondrial (Homo sapiens, UniProt Q9Y2D0) reads > 100 µM

The value of Ki recorded for `O=C(/C=C/c1cccc(O)c1)C[C@@H]1O[C@H](CO)[C@@H](O)[C@H](O)[C@H]1O` when tested on Carbonic anhydrase 5B, mitochondrial (Homo sapiens, UniProt Q9Y2D0) reads > 100 µM

The value of Ki recorded for `O=C(/C=C/c1cccc(O)c1)C[C@@H]1O[C@H](CO)[C@H](O)[C@H](O)[C@H]1O` when tested on Carbonic anhydrase 5B, mitochondrial (Homo sapiens, UniProt Q9Y2D0) reads > 100 µM

Hello, the source for this data is ChEMBL document CHEMBL2331241, in case you need it.
